Reference source: patent US20230089867A1

- target-under-test: human PCSK9 (Homo sapiens)
- Sequence (Q8NBP7 153-692): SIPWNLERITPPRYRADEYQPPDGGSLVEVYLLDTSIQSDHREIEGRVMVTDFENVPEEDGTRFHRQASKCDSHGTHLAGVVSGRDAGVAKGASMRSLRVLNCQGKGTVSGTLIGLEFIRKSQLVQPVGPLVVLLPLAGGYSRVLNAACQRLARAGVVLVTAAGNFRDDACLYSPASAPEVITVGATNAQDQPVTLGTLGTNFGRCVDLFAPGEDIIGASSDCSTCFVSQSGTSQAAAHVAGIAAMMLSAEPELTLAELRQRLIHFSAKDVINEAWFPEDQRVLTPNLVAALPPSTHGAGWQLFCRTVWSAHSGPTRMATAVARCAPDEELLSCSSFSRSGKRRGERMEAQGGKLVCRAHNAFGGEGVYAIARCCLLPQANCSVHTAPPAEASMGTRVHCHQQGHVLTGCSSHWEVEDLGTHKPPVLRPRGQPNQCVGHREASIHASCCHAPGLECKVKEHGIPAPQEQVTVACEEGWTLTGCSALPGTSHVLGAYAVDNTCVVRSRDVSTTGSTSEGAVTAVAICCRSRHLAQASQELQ
- Sequence (Q8NBP7 31-152 partner limits assumed): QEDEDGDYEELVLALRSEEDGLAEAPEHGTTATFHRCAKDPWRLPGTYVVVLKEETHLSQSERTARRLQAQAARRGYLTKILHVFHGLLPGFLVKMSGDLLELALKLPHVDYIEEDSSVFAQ
- protocol: PCSK9 ligand binding TR-FRET assay (interference with binding of human PCSK9 to human LDLR)
- settings: PCSK9 FRET assay, efficacy (Amax); 100% = 1 uM unlabeled human PCSK9, 0% = DMSO
Give measured Max % inhibition for each item. Keep answers brief.
Answers are plain numbers, in %.

Here's what some known entries look like.
{"smiles-notation": "COC[C@@H]1NC(=O)[C@H](C)N(Cc2ccc(OC(F)(F)F)cc2Oc2ccc(-c3cnc(CN(C)C)n3C)cc2)C(=O)C[C@@H](Cc2ccccc2)C(=O)N(C)[C@@H](C)CNC(=O)C[C@H](Cc2ccc(Cl)cc2)N(C)C1=O", "target-under-test": "human PCSK9 (Homo sapiens)", "units-text": "%", "Max % inhibition": 104.05}
{"smiles-notation": "CCn1c(-c2ccc(Oc3cc(Cl)ccc3CN3C(=O)C[C@@H](Cc4ccccc4)C(=O)N(C)[C@@H](C)CNC(=O)C[C@H](Cc4ccc(Cl)cc4)N(C)C(=O)[C@H](COC)NC(=O)[C@@H]3C)cc2)cnc1CN1CCCC1", "target-under-test": "human PCSK9 (Homo sapiens)", "units-text": "%", "Max % inhibition": 80.60}
{"smiles-notation": "COC[C@@H]1NC(=O)[C@H](C)N(Cc2ccc(Cl)cc2Oc2ccc(-c3cnc(CN4CCC4)n3C)cc2)C(=O)C[C@@H](Cc2ccccc2)C(=O)N(C)[C@@H](C)CNC(=O)C[C@H](Cc2ccc(Cl)cc2)N(C)C1=O", "target-under-test": "human PCSK9 (Homo sapiens)", "units-text": "%", "Max % inhibition": 96.97}

Moving on to another compound below.
Q: Any idea what Max % inhibition came out for `COC[C@@H]1NC(=O)[C@H](C)N(Cc2ccc(Cl)cc2Oc2ccc(-c3cnc(CN(C)C)n3C)cc2)C(=O)C[C@@H](CC2CC2)C(=O)N(C)[C@H]2CCCC[C@@H]2NC(=O)C[C@H](Cc2ccc(Cl)cc2)N(C)C1=O` on human PCSK9 (Homo sapiens)?
Result: 79.21

* * *

Give measured Max % inhibition for each item. Keep answers brief.
- target-under-test: human PCSK9 (Homo sapiens)
- protocol: PCSK9 ligand binding TR-FRET assay (interference with binding of human PCSK9 to human LDLR)
- settings: PCSK9 FRET assay, efficacy (Amax); 100% = 1 uM unlabeled human PCSK9, 0% = DMSO
Numbers only, in %.

{"molecule": "COC[C@@H]1NC(=O)[C@H](C)N(Cc2ccc(Cl)cc2Oc2ccc(-c3cnc(CN4CCCC4)n3C)cc2)C(=O)C[C@@H](Cc2ccc(F)c(F)c2)C(=O)N(C)[C@@H](C)CNC(=O)C[C@H](Cc2ccc(Cl)cc2)N(C)C1=O [Compound 165]", "property-name": "Max % inhibition", "quantitative-readout": 92.29}

Provide Max % inhibition for all items below, preserving their order.
1. COC[C@@H]1NC(=O)[C@H](CC(=O)O)N(Cc2ccc(Cl)cc2Oc2ccc(-c3cnc(CN(C)C)n3C)cc2)C(=O)C[C@@H](Cc2ccccc2)C(=O)N(C)[C@H]2CCCC[C@@H]2NC(=O)C[C@H](Cc2ccc(Cl)cc2)N(C)C1=O [Compound 219]
2. COC[C@@H]1NC(=O)[C@H](C)N(Cc2ccc(Cl)cc2Oc2ccc(-c3cnc(CN4CCCC4)n3C)cc2)C(=O)C[C@@H](Cc2ccc(F)cc2)C(=O)N(C)[C@@H](C)CNC(=O)C[C@H](Cc2ccc(Cl)cc2)N(C)C1=O [Compound 108]
3. COC[C@@H]1NC(=O)[C@H](CCF)N(Cc2ccc(Cl)cc2Oc2ccc(-c3cnc(CN4CCCC4)n3C)cc2)C(=O)C[C@@H](Cc2ccccc2)C(=O)N(C)[C@@H](C)CNC(=O)C[C@H](Cc2ccc(Cl)cc2)N(C)C1=O [Compound 54]

Result:
105.15
99.73
92.54

* * *

- target-under-test: human PCSK9 (Homo sapiens)
- protocol: PCSK9 ligand binding TR-FRET assay (interference with binding of human PCSK9 to human LDLR)
- settings: PCSK9 FRET assay, efficacy (Amax); 100% = 1 uM unlabeled human PCSK9, 0% = DMSO
property-name: Max % inhibition (%)
Numbers only, in %.

Here's what some known entries look like.
{"smiles-notation": "COC[C@@H]1NC(=O)[C@H](C)N(Cc2c(Cl)cccc2Oc2ccc(-c3cnc(CN(C)C)n3C)cc2)C(=O)C[C@@H](C)C(=O)N(C)[C@@H](C)CNC(=O)C[C@H](Cc2ccc(Cl)cc2)N(C)C1=O", "Max % inhibition / %": 46.03}
{"smiles-notation": "COC[C@@H]1NC(=O)[C@H](C)N(Cc2ccc(Cl)cc2Oc2ccc(-c3cnc(CN4CC5(COC5)C4)n3C)cc2)C(=O)C[C@@H](Cc2ccccc2)C(=O)N(C)[C@@H](C)CNC(=O)C[C@H](Cc2ccc(Cl)cc2)N(C)C1=O", "Max % inhibition / %": 95.01}
{"smiles-notation": "C[C@H]1C(=O)N[C@@H](COC(F)F)C(=O)N(C)[C@@H](Cc2ccc(Cl)cc2)CC(=O)N[C@H]2CCCC[C@@H]2N(C)C(=O)[C@H](Cc2ccccc2)CC(=O)N1Cc1ccc(Cl)cc1Oc1ccc(-c2cnc(CN(C)C)n2C)cc1", "Max % inhibition / %": 103.04}
{"smiles-notation": "COC[C@@H]1NC(=O)[C@H](C)N(Cc2ccc(Cl)cc2Oc2ccc(-c3cnc(CN(C)C)n3C)cc2)C(=O)C[C@@H](Cc2cccc(C)n2)C(=O)N(C)[C@H]2CCCC[C@@H]2NC(=O)C[C@H](Cc2ccc(Cl)cc2)N(C)C1=O", "Max % inhibition / %": 104.88}

Provide Max % inhibition for all items below, preserving their order.
1. COC[C@@H]1NC(=O)[C@H](C)N(Cc2ccc(Cl)cc2Oc2ccc(-c3cnc(CN(C)C)n3C)cc2)C(=O)C[C@@H](Cc2ccccn2)C(=O)N(C)[C@@H](C)[C@H](C)NC(=O)C[C@H](Cc2ccc(Cl)cc2)N(C)C1=O
2. COC[C@@H]1NC(=O)[C@H](C)N(Cc2c(OCC(F)(F)F)cc(Cl)cc2Oc2ccc(-c3cnc(CN4CCCC4)n3C)cc2)C(=O)C[C@@H](C)C(=O)N(C)[C@@H](C)CNC(=O)C[C@H](Cc2ccc(Cl)cc2)N(C)C1=O

Result:
1: 101.64; 2: 93.00

Provide Max % inhibition for all items below, preserving their order.
1. COCC(=O)N1CCc2ncc(-c3ccc(Oc4cc(Cl)ccc4CN4C(=O)C[C@@H](Cc5ccccc5)C(=O)N(C)[C@@H](C)CNC(=O)C[C@H](Cc5ccc(Cl)cc5)N(C)C(=O)[C@H](COC)NC(=O)[C@@H]4C)cc3)cc2C1
2. C[C@H]1CNC(=O)C[C@H](Cc2ccc(Cl)cc2)N(C)C(=O)[C@H](CO)NC(=O)[C@H](C)N(Cc2ccc(Cl)cc2Oc2ccc3c(c2)C(=O)N(C2CCN(C)CC2)C3)C(=O)C[C@@H](Cc2ccccc2)C(=O)N1C
3. Cc1c(CN2CCCC2)cncc1-c1ccc(Oc2cc(Cl)ccc2CN2C(=O)C[C@@H](Cc3ccccc3)C(=O)N(C)[C@@H](C)CNC(=O)C[C@H](Cc3ccc(Cl)cc3)N(C)C(=O)[C@H](CO)NC(=O)[C@@H]2C)cc1
4. COC[C@@H]1NC(=O)[C@H](C)N(Cc2ccc(Cl)cc2Oc2ccc(-n3nnc(CN(C)C)c3C)cc2)C(=O)C[C@@H](Cc2ccccc2)C(=O)N(C)[C@@H](C)CNC(=O)C[C@H](Cc2ccc(Cl)cc2)N(C)C1=O.O=CO
5. COC[C@@H]1NC(=O)[C@H](C)N(Cc2ccc(Cl)cc2Oc2ccc(-c3cnc(CN(C)C)n3C)cc2)C(=O)C[C@@H](Cc2ccc(F)c(F)c2F)C(=O)N(C)[C@@H](C)CNC(=O)C[C@H](Cc2ccc(Cl)cc2)N(C)C1=O
6. COC[C@@H]1NC(=O)[C@H](C)N(Cc2ccc(Cl)cc2Oc2ccc(-c3cnc4n3CCN(C(=O)[C@@H]3CCOC3)C4)cc2)C(=O)C[C@@H](Cc2ccccc2)C(=O)N(C)[C@@H](C)CNC(=O)C[C@H](Cc2ccc(Cl)cc2)N(C)C1=O
7. CNCC[C@H]1C(=O)N[C@@H](COC)C(=O)N(C)[C@@H](Cc2ccc(Cl)cc2)CC(=O)N[C@H]2CCCC[C@@H]2N(C)C(=O)[C@H](Cc2ccccc2)CC(=O)N1Cc1ccc(Cl)cc1Oc1ccc(-c2cnc(CN(C)C)n2C)cc1

Result:
1. 67.25
2. 77.42
3. 51.67
4. 98.77
5. 95.65
6. 91.76
7. 95.68

* * *

- target-under-test: human PCSK9 (Homo sapiens)
- protocol: PCSK9 ligand binding TR-FRET assay (interference with binding of human PCSK9 to human LDLR)
- settings: PCSK9 FRET assay, efficacy (Amax); 100% = 1 uM unlabeled human PCSK9, 0% = DMSO
property-name: Max % inhibition (%)
Give bare numbers, in %.

Here's what some known entries look like.
{"compound": "C[C@H]1CNC(=O)C[C@H](Cc2ccc(Cl)cc2)NC(=O)[C@H](CF)NC(=O)[C@H](C)N(Cc2ccc(Cl)cc2Oc2ccc(-c3cnc(CN4CCCC4)n3C)cc2)C(=O)C[C@@H](Cc2ccccc2)C(=O)N1C [Compound 25]", "property-name": "Max % inhibition", "units-text": "%", "quantitative-readout": 52.86}
{"compound": "COC[C@@H]1NC(=O)[C@H](C)N(Cc2ccc(Cl)cc2Oc2ccc(-c3cnc(CN(C)C)n3C)cc2)C(=O)C[C@H]2C(=O)N(C)[C@@H](CNC(=O)C[C@H](Cc3ccc(Cl)cc3)N(C)C1=O)C(=O)N2C [Compound 262]", "property-name": "Max % inhibition", "units-text": "%", "quantitative-readout": 97.63}
{"compound": "COC[C@@H]1NC(=O)[C@H](C)N(Cc2ccc(Cl)cc2Oc2ccc(-c3cnc(CN4CCCC4)n3C)cc2)C(=O)C[C@@H](Cc2ccccc2)C(=O)N(C)[C@@H]2CCOC[C@H]2NC(=O)C[C@H](Cc2ccc(Cl)cc2)N(C)C1=O [Compound 14]", "property-name": "Max % inhibition", "units-text": "%", "quantitative-readout": 93.84}

Q: Any idea what Max % inhibition came out for COC[C@@H]1NC(=O)[C@H](CCN2CCOCC2)N(Cc2ccc(Cl)cc2Oc2ccc(-c3cnc(CN(C)C)n3C)cc2)C(=O)C[C@@H](Cc2ccccc2)C(=O)N(C)[C@@H](C)[C@H](C)NC(=O)C[C@H](Cc2ccc(Cl)cc2)N(C)C1=O [Compound 94] on human PCSK9 (Homo sapiens)?
Result: 104.90
